test: Pharmacokinetic study in rats after oral administration of A. japonica extract (LC-MS/MS of plasma); type: in vivo; settings: male, Sprague-Dawley, in vivo; rat plasma, oral A. japonica extract 0.93 g kg^−1, one compartment model; read-out: MRT(0–t24 h)
property_measured: MRT (h)

>  <compound>
C[C@@H]1O[C@@H](Oc2c(-c3ccc(O)c(O)c3)oc3cc(O)cc(O)c3c2=O)[C@H](O)[C@H](O)[C@H]1O [Quercetin-3-rhamnoside, quercetin-3-rhamnoside]

>  <property_measured>
MRT

>  <measurement>
5.08

$$$$

----------
experiment: Pharmacokinetic study in rats after oral administration of A. japonica extract (LC-MS/MS of plasma); type: in vivo; conditions: male, Sprague-Dawley, in vivo; rat plasma, oral A. japonica extract 0.93 g kg^−1, one compartment model; read-out: MRT(0–∞)
property_measured: MRT inf (h)

>  <compound>
C[C@@H]1O[C@@H](Oc2c(-c3ccc(O)c(O)c3)oc3cc(O)cc(O)c3c2=O)[C@H](O)[C@H](O)[C@H]1O [Quercetin-3-rhamnoside, quercetin-3-rhamnoside]

>  <measurement>
7.09

$$$$
